Target: Cannabinoid receptor 2 (Homo sapiens)
Sequence (P34972 whole entry): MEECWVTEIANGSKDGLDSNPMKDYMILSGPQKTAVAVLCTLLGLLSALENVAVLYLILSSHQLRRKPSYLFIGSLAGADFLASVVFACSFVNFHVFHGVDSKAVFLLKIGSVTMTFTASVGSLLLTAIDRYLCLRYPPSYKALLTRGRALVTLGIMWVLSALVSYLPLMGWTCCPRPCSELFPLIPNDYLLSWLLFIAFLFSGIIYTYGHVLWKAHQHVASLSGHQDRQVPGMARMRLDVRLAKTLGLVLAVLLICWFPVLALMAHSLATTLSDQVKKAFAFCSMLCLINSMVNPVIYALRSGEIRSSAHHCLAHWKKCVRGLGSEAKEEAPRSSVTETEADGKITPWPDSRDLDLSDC
Assay: Agonist activity at human CB2 receptor expressed in CHO cell membranes after 90 mins by [35S]GTPgammaS binding assay
pEC50: −log10 of the molar value.
Use Criterion met when the recorded pEC50 is no lower than 8; use Criterion not met when it is lower.

>  <smiles input>
Cc1c(Br)cnc(OCc2ccc(F)cc2)c1C(=O)NC1CCCCCC1

>  <cat>
Criterion not met

$$$$
>  <smiles input>
O=C(NC1CCCCCC1)c1c(-c2ccccc2)ccn(Cc2ccc(F)cc2)c1=O

>  <cat>
Criterion not met

$$$$
>  <smiles input>
Cc1c(Br)cn(Cc2ccc(F)cc2)c(=O)c1C(=O)NC1CCCCCC1

>  <cat>
Criterion met

$$$$
>  <smiles input>
O=C(NC1CCCCCC1)c1c(-c2ccccc2)c(Br)cn(Cc2ccc(F)cc2)c1=O

>  <cat>
Criterion not met

$$$$
>  <smiles input>
Cc1ccnc(OCc2ccc(F)cc2)c1C(=O)NC1CCCCCC1

>  <cat>
Criterion not met

$$$$
>  <smiles input>
COc1ccc(C(=O)c2c(C)n(CCN3CCOCC3)c3cc(I)ccc23)cc1

>  <cat>
Criterion not met

$$$$
>  <smiles input>
Cc1ccn(Cc2ccc(F)cc2)c(=O)c1C(=O)NC1CCCCCC1

>  <cat>
Criterion met

$$$$
